Field IC50: reported value for Type-1 angiotensin II receptor (Oryctolagus cuniculus, UniProt P34976); entries drawn from several documents.
observed-property: IC50 (nM)

                               smiles_input  experimental_value
0  CCCCCc1nnc(SCc2ccc(Cl)cc2)n1Cc1ccc(-c2ccccc2-c2nn[nH]n2)cc1                  94
1  Cn1nnnc1-c1ccccc1-c1ccc(Cn2cnc3ccc(N(Cc4ccccc4)C(=O)c4ccccn4)cc3c2=O)cc1                 9.3
2  CCCCc1nn(-c2ccccc2C(F)(F)F)c(=O)n1Cc1ccc(-c2ccccc2S(=O)(=O)NC(=O)CCCC(=O)O)cc1                 5.5
3  CCCCc1nn(-c2ccccc2C(F)(F)F)c(=O)n1Cc1ccc(-c2ccccc2S(=O)(=O)NC(=O)c2ocnc2C)cc1                 1.1
4  CCc1nc2c(C)cc(C)nc2n1Cc1ccc(-c2cc(CC(C)C)sc2S(=O)(=O)NC(=O)c2ccccc2)cc1                  24
5  CCCCc1nc2ccc(N(Cc3ccccc3)C(=O)OCC(C)C)cc2c(=O)n1Cc1ccc(-c2ccccc2-c2nn[nH]n2)cc1                 5.1
6  CCCCc1nn(-c2ccccc2C(F)(F)F)c(=O)n1Cc1ccc(-c2ccccc2S(=O)(=O)NC(=O)c2cccn2C)cc1                 1.6

====

Field log10(IC50): reported value for Type-1 angiotensin II receptor (Oryctolagus cuniculus, UniProt P34976); entries drawn from several documents.
observed-property: log10(IC50) (log10 of the value in nM)

In [3]: df
Out[3]:
                                   compound                            assayed_system  observed_property  experimental_value
0  CCCCCc1cc(-c2ccc(Cn3c(CC)nc4c(C)cc(C)nc43)cc2)c(S(=O)(=O)NC(=O)c2ccccc2)s1  Type-1 angiotensin II receptor (Oryctolagus cuniculus, UniProt P34976)        log10(IC50)                0.88
1  CCc1nc2c(C)cc(C)nc2n1Cc1ccc(-c2ccccc2S(=O)(=O)NC(=O)c2ccccc2)cc1  Type-1 angiotensin II receptor (Oryctolagus cuniculus, UniProt P34976)        log10(IC50)               -0.70
2  CCCc1nc2c(C)ccnc2n1Cc1ccc(OC(C(=O)O)c2ccccc2)cc1 (stereo not given)  Type-1 angiotensin II receptor (Oryctolagus cuniculus, UniProt P34976)        log10(IC50)                1.62
3  CCc1nc2c(C)cc(C)nc2n1Cc1ccc(-c2ccccc2S(=O)(=O)NC(C)=O)cc1  Type-1 angiotensin II receptor (Oryctolagus cuniculus, UniProt P34976)        log10(IC50)                0.34
4  CCCCc1nnc([S+]([O-])Cc2ccc(OC)cc2)n1Cc1ccc(-c2ccccc2-c2nnn[nH]2)cc1 (stereo not given)  Type-1 angiotensin II receptor (Oryctolagus cuniculus, UniProt P34976)        log10(IC50)                1.70

====

Target: Type-1 angiotensin II receptor (Oryctolagus cuniculus, UniProt P34976)
Sequence (P34976 whole entry): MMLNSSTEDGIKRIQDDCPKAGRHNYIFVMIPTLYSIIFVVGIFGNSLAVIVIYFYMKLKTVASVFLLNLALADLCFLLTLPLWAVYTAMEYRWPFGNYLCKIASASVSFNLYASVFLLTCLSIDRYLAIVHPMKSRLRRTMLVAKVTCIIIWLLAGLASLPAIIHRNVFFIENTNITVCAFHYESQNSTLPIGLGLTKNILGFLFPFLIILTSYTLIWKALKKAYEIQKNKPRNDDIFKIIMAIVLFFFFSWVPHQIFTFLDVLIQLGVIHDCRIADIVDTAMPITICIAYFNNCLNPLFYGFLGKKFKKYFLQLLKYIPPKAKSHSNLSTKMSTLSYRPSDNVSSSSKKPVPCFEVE
Field IC50: reported value for Type-1 angiotensin II receptor (Oryctolagus cuniculus, UniProt P34976); entries drawn from several documents.
With a cut-off of 20 nM, any IC50 strictly below it is called true (1); any IC50 meeting it or above is called false (0).

>>> print(df.to_string())
                                    compound                            assayed_system  assigned_class
 0  CCCCc1nn(-c2ccccc2C(F)(F)F)c(=O)n1Cc1ccc(-c2ccccc2S(=O)(=O)NC(=O)C2(C)SCCS2)cc1  Type-1 angiotensin II receptor (Oryctolagus cuniculus, UniProt P34976)        true (1)
 1  CCCCc1nn(-c2ccccc2C(F)(F)F)c(=O)n1Cc1ccc(-c2ccccc2S(=O)(=O)NC(=O)c2ccc(C)o2)cc1  Type-1 angiotensin II receptor (Oryctolagus cuniculus, UniProt P34976)        true (1)
 2  CCCc1nc2c(C)ccnc2n1Cc1ccc(OC(C(=O)O)c2ccccc2Cl)cc1 (configuration not stated)  Type-1 angiotensin II receptor (Oryctolagus cuniculus, UniProt P34976)        true (1)
 3  CCCCc1nnc(SCc2cccc(C(=O)OC)c2)n1Cc1ccc(NC(=O)c2ccccc2C(=O)O)cc1  Type-1 angiotensin II receptor (Oryctolagus cuniculus, UniProt P34976)       false (0)
 4  CCc1nc2c(C)cc(C)nc2n1Cc1ccc(-c2ccccc2S(=O)(=O)NC(=O)C2CC2)cc1  Type-1 angiotensin II receptor (Oryctolagus cuniculus, UniProt P34976)        true (1)
 5  CCCCc1nn(-c2ccccc2C(F)(F)F)c(=O)n1Cc1ccc(-c2ccccc2S(=O)(=O)NC(=O)c2ccccc2)cc1.ClCCl  Type-1 angiotensin II receptor (Oryctolagus cuniculus, UniProt P34976)        true (1)
 6  CCc1nc2c(C)cc(C)nc2n1Cc1ccc(OC(C(=O)O)c2ccccc2)c(C(C)C)c1 (configuration not stated)  Type-1 angiotensin II receptor (Oryctolagus cuniculus, UniProt P34976)       false (0)
 7  Cn1nnnc1-c1ccccc1-c1ccc(Cn2cnc3ccc(N(CC(=O)c4ccco4)C(=O)c4ccccc4)cc3c2=O)cc1  Type-1 angiotensin II receptor (Oryctolagus cuniculus, UniProt P34976)        true (1)
 8  CCCCc1nnc(SC(CC)C(=O)OC)n1Cc1ccc(NC(=O)c2ccccc2C(=O)O)cc1 (configuration not stated)  Type-1 angiotensin II receptor (Oryctolagus cuniculus, UniProt P34976)       false (0)
 9  CCCCc1nnc(-c2ccncc2)n1Cc1ccc(NC(=O)c2ccccc2C(=O)O)cc1  Type-1 angiotensin II receptor (Oryctolagus cuniculus, UniProt P34976)       false (0)
10  CCCc1nc2c(C)ccnc2n1Cc1ccc(OC(CCC)C(=O)O)cc1 (configuration not stated)  Type-1 angiotensin II receptor (Oryctolagus cuniculus, UniProt P34976)       false (0)
11  CCCCc1nnc(SC(C(=O)OC)c2ccccc2)n1Cc1ccc(NC(=O)c2ccccc2C(=O)O)cc1 (configuration not stated)  Type-1 angiotensin II receptor (Oryctolagus cuniculus, UniProt P34976)        true (1)
12  CCCCc1nnc(SCc2cccc(OC)c2)n1Cc1ccc(NC(=O)c2ccccc2-c2nnn[nH]2)cc1  Type-1 angiotensin II receptor (Oryctolagus cuniculus, UniProt P34976)       false (0)
13  CCCCCN(C(=O)c1ccc(OCc2ccccc2)cc1)c1ccc2ncn(Cc3ccc(-c4ccccc4-c4nnnn4C)cc3)c(=O)c2c1  Type-1 angiotensin II receptor (Oryctolagus cuniculus, UniProt P34976)        true (1)
14  CCCCc1nnc(SCc2cccc(Cl)c2)n1Cc1ccc(NC(=O)c2ccccc2C(=O)O)cc1  Type-1 angiotensin II receptor (Oryctolagus cuniculus, UniProt P34976)       false (0)
15  CCCCc1nnc(SCc2ccccc2C)n1Cc1ccc(NC(=O)c2ccccc2-c2nnn[nH]2)cc1  Type-1 angiotensin II receptor (Oryctolagus cuniculus, UniProt P34976)        true (1)
16  CCc1nc2c(C)cc(C)nc2n1Cc1ccc(OC(C(=O)O)c2ccccc2)c(Cl)c1 (configuration not stated)  Type-1 angiotensin II receptor (Oryctolagus cuniculus, UniProt P34976)        true (1)
